# targetOfAssay: GST-Bcl-2 (Homo sapiens, UniProt P10415)
# Sequence (P10415 whole entry): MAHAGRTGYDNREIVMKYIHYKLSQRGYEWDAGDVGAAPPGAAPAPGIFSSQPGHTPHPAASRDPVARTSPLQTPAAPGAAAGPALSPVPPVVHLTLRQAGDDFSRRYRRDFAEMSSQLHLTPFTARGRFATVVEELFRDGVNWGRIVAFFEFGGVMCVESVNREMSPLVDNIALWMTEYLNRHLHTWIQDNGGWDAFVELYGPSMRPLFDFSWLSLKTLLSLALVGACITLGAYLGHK
# assayExplanation: TR-FRET binding assay, GST-Bcl-2 with F-Bak peptide probe
# recordedConditions: TR-FRET Binding Affinity, GST-Bcl-2, F-Bak peptide probe
measuredMetric: pKi
pKi is defined as minus the log10 of a concentration measured in mol/L.

Consider the worked cases shown below.
O=C(NS(=O)(=O)c1ccc(NCC2CCOCC2)c(S(=O)(=O)C(F)(F)F)c1)c1ccc(N2CCN(Cc3ccccc3-c3ccc(Cl)cc3)CC2)cc1Oc1ccc2[nH]ccc2c1: 8.45
O=C(NS(=O)(=O)c1ccc(NC2CCN(C3CCOCC3)CC2)c([N+](=O)[O-])c1)c1ccc(N2CCN(CC3=C(c4ccc(Cl)cc4)CCC(O)C3)CC2)cc1Oc1ccc2[nH]ccc2c1 (stereo not drawn): 11.00

Lab note: need pKi for CN(C)CCCNc1ccc(S(=O)(=O)NC(=O)c2ccc(N3CCN(CC4=C(c5ccc(Cl)cc5)CC(C)(C)CC4)CC3)cc2Oc2ccc3[nH]ccc3c2)cc1S(=O)(=O)C(F)(F)Cl on GST-Bcl-2 (Homo sapiens, UniProt P10415), anyone have it?
6.54

* * *

# reported Ki; entries follow
# targetOfAssay: GST-Bcl-XL (Homo sapiens)
# assayExplanation: TR-FRET binding assay, GST-Bcl-XL with F-Bak peptide probe
# recordedConditions: TR-FRET Binding Affinity, GST-Bcl-XL, F-Bak peptide probe

Consider the worked cases shown below.
COCCNc1ccc(S(=O)(=O)NC(=O)c2ccc(N3CCN(CC4=C(c5ccc(Cl)cc5)CC(C)(C)CC4)CC3)cc2Oc2ccc3[nH]ccc3c2)cc1S(=O)(=O)C(F)(F)F [Example 315]: > 660 nM
O=C(NS(=O)(=O)c1ccc(NCC2CCOCC2)c([N+](=O)[O-])c1)c1ccc(N2CCN(Cc3cc(OCCO)ccc3-c3ccc(Cl)cc3)CC2)cc1Oc1cccc2[nH]ccc12 [Example 213]: > 660 nM
O=C(NS(=O)(=O)c1ccc(NCC2CCOCC2)c([N+](=O)[O-])c1)c1ccc(N2CCN(CC3=C(c4ccc(Cl)cc4)CCN(CCCO)C3)CC2)cc1Oc1cccc2[nH]ccc12 [Example 355]: > 660 nM
CC1(C)CCC(CN2CCN(c3ccc(C(=O)NS(=O)(=O)c4ccc(NC5CCOCC5)c([N+](=O)[O-])c4)c(Oc4ccc5[nH]ccc5c4)c3)CC2)=C(c2ccc(Cl)cc2)C1 [Example 263]: > 660 nM
CC1(C)CCC(CN2CCN(c3ccc(C(=O)NS(=O)(=O)c4ccc(NCC56CC7CC(C5)C(O)[C@H](C7)C6)c([N+](=O)[O-])c4)c(Oc4ccc5[nH]ccc5c4)c3)CC2)=C(c2ccc(Cl)cc2)C1 (some centres unmarked) [Example 321]: > 660 nM

Look at this compound and give its reported Ki. CC1(C)CCC(CN2CCN(c3ccc(C(=O)NS(=O)(=O)c4ccc(OCC5CCOC(C)(C)C5)c([N+](=O)[O-])c4)c(Oc4ccc5[nH]ccc5c4)c3)CC2)=C(c2ccc(Cl)cc2)C1 (centres unmarked) [Example 384]
> 660 nM

Look at this compound and give its reported Ki. COc1ccc(Nc2ccc(S(=O)(=O)NC(=O)c3ccc(N4CCN(CC5=C(c6ccc(Cl)cc6)CC(C)(C)CC5)CC4)cc3Oc3ccc4[nH]ccc4c3)cc2[N+](=O)[O-])cc1 [Example 372]
> 660 nM

Look at this compound and give its reported Ki. CC1(C)CCC(CN2CCN(c3ccc(C(=O)NS(=O)(=O)c4ccc(NC5CCC(N6CCOCC6)CC5)c([N+](=O)[O-])c4)c(Oc4ccc5[nH]ccc5c4)c3)CC2)=C(c2ccc(Cl)cc2)C1 (centres unmarked) [Example 363]
> 660 nM

* * *

# reported Ki; entries follow
# targetOfAssay: GST-Bcl-XL (Homo sapiens)
# assayExplanation: TR-FRET binding assay, GST-Bcl-XL with F-Bak peptide probe
# recordedConditions: TR-FRET Binding Affinity, GST-Bcl-XL, F-Bak peptide probe

Consider the worked cases shown below.
CN(C)CC#Cc1ccc(-c2ccc(Cl)cc2)c(CN2CCN(c3ccc(C(=O)NS(=O)(=O)c4ccc(NCC5CCOCC5)c([N+](=O)[O-])c4)c(Oc4cccc5[nH]ccc45)c3)CC2)c1 [Example 209]: > 0.66 µM
CN(C)CC[C@H](Nc1ccc(S(=O)(=O)NC(=O)c2ccc(N3CCN(Cc4ccccc4-c4ccc(Cl)cc4)CC3)cc2Oc2ccccc2)cc1[N+](=O)[O-])c1cccs1 [Example 161]: > 0.66 µM
O=C(NS(=O)(=O)c1ccc(OCC2CCOCC2)c([N+](=O)[O-])c1)c1ccc(N2CCN(Cc3ccc(C(F)(F)F)cc3-c3ccc(Cl)cc3)CC2)cc1Oc1ccc2[nH]ccc2c1 [Example 340]: > 0.66 µM
CN1CCC(Nc2ccc(S(=O)(=O)NC(=O)c3ccc(N4CCN(CC5=C(c6ccc(Cl)cc6)CC(C)(C)CC5)CC4)cc3Nc3cccnc3)cc2[N+](=O)[O-])CC1 [Example 396]: > 660 µM
CC1(C)CCC(CN2CCN(c3ccc(C(=O)NS(=O)(=O)c4ccc(NC5CCN(C6Cc7ccccc7C6)CC5)c([N+](=O)[O-])c4)c(Oc4ccc5[nH]ccc5c4)c3)CC2)=C(c2ccc(Cl)cc2)C1 [Example 228]: > 0.66 µM

Next compound, Ki to be filled in.
Look at this compound and give its reported Ki. CC1(C)CCC(CN2CCN(c3ccc(C(=O)NS(=O)(=O)c4ccc(NC[C@H]5CC[C@@H](O)CC5)c([N+](=O)[O-])c4)c(Oc4ccc5[nH]ccc5c4)c3)CC2)=C(c2ccc(Cl)cc2)C1 [Example 312]
> 0.66 µM

* * *

# reported Ki; entries follow
# targetOfAssay: GST-Bcl-2 (Homo sapiens, UniProt P10415)
# assayExplanation: TR-FRET binding assay, GST-Bcl-2 with F-Bak peptide probe
# recordedConditions: TR-FRET Binding Affinity, GST-Bcl-2, F-Bak peptide probe
# output: bare number, implied unit nM

Consider the worked cases shown below.
CC1(C)CC(c2ccc(Cl)cc2)=C(CN2CCN(c3ccc(C(=O)NS(=O)(=O)c4ccc(NCC5CCOCC5)c([N+](=O)[O-])c4)c(Oc4ccc5[nH]ccc5c4)c3)CC2)CO1: 0.087
CC1(C)CCC(CN2CCN(c3ccc(C(=O)NS(=O)(=O)c4ccc(NCCC#N)c([N+](=O)[O-])c4)c(Oc4ccc5[nH]ccc5c4)c3)CC2)=C(c2ccc(Cl)cc2)C1: 0.413

Next molecule, Ki to be filled in.
Lab note: need Ki for O=C(NS(=O)(=O)c1ccc(NCC2CCOCC2)c([N+](=O)[O-])c1)c1ccc(N2CCN(CC3=C(c4ccc(Cl)cc4)CCC(O)C3)CC2)cc1Oc1ccc2[nH]ccc2c1 (stereo not drawn) on GST-Bcl-2 (Homo sapiens, UniProt P10415), anyone have it?
0.013

* * *

# targetOfAssay: GST-Bcl-XL (Homo sapiens, UniProt Q07817)
# Sequence (Q07817 whole entry): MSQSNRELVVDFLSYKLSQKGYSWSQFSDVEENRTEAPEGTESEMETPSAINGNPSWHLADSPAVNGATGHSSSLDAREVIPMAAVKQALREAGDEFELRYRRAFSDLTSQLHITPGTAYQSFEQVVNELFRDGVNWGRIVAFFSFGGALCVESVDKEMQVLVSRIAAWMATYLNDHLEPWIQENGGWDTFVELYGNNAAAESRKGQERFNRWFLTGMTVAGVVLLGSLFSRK
# assayExplanation: TR-FRET binding assay, GST-Bcl-XL with F-Bak peptide probe
# recordedConditions: TR-FRET Binding Affinity
pKi: −log10 of the molar value.
Lab note: anything with pKi at or over 8 counts as fulfilled; the rest go in not fulfilled.

CN1CCN(Nc2ccc(S(=O)(=O)NC(=O)c3ccc(N4CCN(CC5=C(c6ccc(Cl)cc6)CC(C)(C)CC5)CC4)cc3Oc3cccc4[nH]cnc34)cc2[N+](=O)[O-])CC1: fulfilled
CC1(C)CCC(CN2CCN(c3ccc(C(=O)NS(=O)(=O)c4cnc(OC[C@H]5CC[C@H](C(N)=O)CC5)c(Cl)c4)c(Oc4cccc5[nH]ncc45)c3)CC2)=C(c2ccc(Cl)cc2)C1: fulfilled
CC1(C)CCC(CN2CCN(c3cc(Oc4cccc5[nH]ncc45)c(C(=O)NS(=O)(=O)c4ccc(NCC5(F)CCOCC5)c([N+](=O)[O-])c4)cc3Cl)CC2)=C(c2ccc(Cl)cc2)C1: not fulfilled

# bool: pKi of CN1CCC(CNc2ccc(S(=O)(=O)NC(=O)c3ccc(N4CCN(CC5=C(c6ccc(Cl)cc6)CC(C)(C)CC5)CC4)cc3Oc3cccc4[nH]cnc34)cc2[N+](=O)[O-])CC1 >= 8
not fulfilled

# bool: pKi of CC1(C)CCC(CN2CCN(c3ccc(C(=O)NS(=O)(=O)c4cnc(OC[C@@H]5CN(C6CC6)CCO5)c(Cl)c4)c(Oc4cccc5[nH]ncc45)c3)CC2)=C(c2ccc(Cl)cc2)C1 >= 8
fulfilled

* * *

# reported Ki; entries follow
# targetOfAssay: UniProt:Q07817
# assayExplanation: TR-FRET binding assay, GST-Bcl-XL with F-Bak peptide probe
# recordedConditions: TR-FRET Binding Affinity, GST-Bcl-XL, F-Bak peptide probe
# output: bare number, implied unit nM

CN(C)CCOc1cccc(-c2ccc(Cl)cc2)c1CN1CCN(c2ccc(C(=O)NS(=O)(=O)c3ccc(NC4CCN(C5CCOCC5)CC4)c([N+](=O)[O-])c3)c(Oc3cccc4[nH]ccc34)c2)CC1: 5.23

Look at this compound and give its reported Ki. CC1(C)CCC(CN2CCN(c3ccc(C(=O)NS(=O)(=O)c4ccc(NCC5(N)CCOCC5)c([N+](=O)[O-])c4)c(Oc4ccc5[nH]ccc5c4)c3)CC2CO)=C(c2ccc(Cl)cc2)C1 (centres unmarked)
268

Look at this compound and give its reported Ki. CO[C@H]1CC[C@@H](CNc2ccc(S(=O)(=O)NC(=O)c3ccc(N4CCN(CC5=C(c6ccc(Cl)cc6)CC(C)(C)CC5)CC4)cc3Oc3ccc4[nH]ccc4c3)cc2[N+](=O)[O-])CC1
66

Look at this compound and give its reported Ki. CC1(C)CCC(CN2CCN(c3ccc(C(=O)NS(=O)(=O)c4ccc(NCCCN5CCCC5)c([N+](=O)[O-])c4)c(Oc4ccc5[nH]ccc5c4)c3)CC2)=C(c2ccc(Cl)cc2)C1
2.61

Look at this compound and give its reported Ki. CC1(C)CCC(CN2CCN(c3ccc(C(=O)NS(=O)(=O)c4ccc(NC5CCN(C6CCOCC6)CC5)c([N+](=O)[O-])c4)c(Oc4cccc5[nH]cnc45)c3)CC2)=C(c2ccc(Cl)cc2)C1
3.99

Look at this compound and give its reported Ki. CN1CC(Nc2ccc(S(=O)(=O)NC(=O)c3ccc(N4CCN(CC5=C(c6ccc(Cl)cc6)CC(C)(C)CC5)CC4)cc3Oc3ccc4[nH]ccc4c3)cc2[N+](=O)[O-])CC1=O (centres unmarked)
119
